target: human Nav1.8 (Homo sapiens (Human), UniProt Q9Y5Y9); assay: Nav1.8 Qube automated patch-clamp assay; conditions: Nav1.8 Qube Assay; human Nav1.8 channels stably expressed in HEK 293 cells
Sequence (Q9Y5Y9 whole entry): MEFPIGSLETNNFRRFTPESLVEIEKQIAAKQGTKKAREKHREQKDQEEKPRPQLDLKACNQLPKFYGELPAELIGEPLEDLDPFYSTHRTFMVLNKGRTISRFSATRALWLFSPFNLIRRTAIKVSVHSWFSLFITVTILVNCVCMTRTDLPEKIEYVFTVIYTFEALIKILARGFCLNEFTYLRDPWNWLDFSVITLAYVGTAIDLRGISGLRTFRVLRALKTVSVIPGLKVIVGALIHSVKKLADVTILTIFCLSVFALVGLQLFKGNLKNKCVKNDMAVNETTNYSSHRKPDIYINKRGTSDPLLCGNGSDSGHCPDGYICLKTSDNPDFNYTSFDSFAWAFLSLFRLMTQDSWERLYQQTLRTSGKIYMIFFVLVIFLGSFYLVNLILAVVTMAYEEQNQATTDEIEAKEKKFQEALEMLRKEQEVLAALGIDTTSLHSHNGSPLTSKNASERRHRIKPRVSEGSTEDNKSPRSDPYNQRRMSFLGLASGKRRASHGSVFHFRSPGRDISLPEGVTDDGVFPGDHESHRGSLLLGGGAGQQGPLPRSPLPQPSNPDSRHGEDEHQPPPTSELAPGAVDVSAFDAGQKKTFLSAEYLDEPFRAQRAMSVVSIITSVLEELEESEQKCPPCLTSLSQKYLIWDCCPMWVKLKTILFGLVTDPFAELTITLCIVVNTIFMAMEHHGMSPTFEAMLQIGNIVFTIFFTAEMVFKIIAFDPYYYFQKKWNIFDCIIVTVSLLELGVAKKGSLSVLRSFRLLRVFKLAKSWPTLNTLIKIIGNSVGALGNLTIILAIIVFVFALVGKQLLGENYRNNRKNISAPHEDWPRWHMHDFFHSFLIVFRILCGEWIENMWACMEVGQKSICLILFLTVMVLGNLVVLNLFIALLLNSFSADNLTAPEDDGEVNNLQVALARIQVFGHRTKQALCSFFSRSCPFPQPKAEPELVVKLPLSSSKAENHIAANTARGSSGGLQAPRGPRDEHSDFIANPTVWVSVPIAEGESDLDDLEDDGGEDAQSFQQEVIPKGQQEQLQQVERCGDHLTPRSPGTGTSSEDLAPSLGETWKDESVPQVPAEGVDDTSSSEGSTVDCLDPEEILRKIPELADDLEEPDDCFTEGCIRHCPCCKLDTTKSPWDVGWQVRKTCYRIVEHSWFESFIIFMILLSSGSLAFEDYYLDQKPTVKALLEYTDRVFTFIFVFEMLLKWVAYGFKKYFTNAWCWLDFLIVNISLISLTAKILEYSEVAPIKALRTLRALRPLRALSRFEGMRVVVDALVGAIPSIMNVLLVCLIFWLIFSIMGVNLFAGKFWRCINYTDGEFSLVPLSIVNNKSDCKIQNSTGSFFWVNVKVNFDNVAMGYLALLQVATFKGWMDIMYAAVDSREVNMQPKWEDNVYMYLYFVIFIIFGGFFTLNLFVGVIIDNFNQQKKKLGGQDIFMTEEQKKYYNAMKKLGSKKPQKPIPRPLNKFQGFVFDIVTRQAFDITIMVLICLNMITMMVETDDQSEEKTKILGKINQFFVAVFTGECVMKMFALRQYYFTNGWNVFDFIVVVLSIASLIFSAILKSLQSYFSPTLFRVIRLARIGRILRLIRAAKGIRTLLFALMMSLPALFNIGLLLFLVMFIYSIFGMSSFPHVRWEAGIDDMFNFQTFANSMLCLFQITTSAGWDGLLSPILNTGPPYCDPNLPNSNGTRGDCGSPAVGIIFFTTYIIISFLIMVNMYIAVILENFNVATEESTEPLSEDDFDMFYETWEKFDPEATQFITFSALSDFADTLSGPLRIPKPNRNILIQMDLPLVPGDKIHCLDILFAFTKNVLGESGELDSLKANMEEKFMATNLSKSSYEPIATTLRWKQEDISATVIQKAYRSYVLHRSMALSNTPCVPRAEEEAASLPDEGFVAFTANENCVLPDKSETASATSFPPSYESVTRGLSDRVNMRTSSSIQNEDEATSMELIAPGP
measurement_label: pIC50
Answers are plain numbers, as −log10 of the molar value.

C[C@@H]1CN(c2ncc(C(F)(F)F)cc2C(=O)Nc2cccc(S(N)(=O)=O)c2)C[C@@H](C(F)(F)F)O1 [Example 146] ... 7.59
CS(=O)(=O)c1cccc(NC(=O)c2ccc(Cl)nc2N2CCCC(F)(F)CC2)c1 [Example 9] ... 8.15
NS(=O)(=O)c1cccc(NC(=O)c2cc(C(F)(F)F)cnc2N2CCS(=O)(=O)CC2)c1 [Example 70] ... 5.26
NS(=O)(=O)c1c(F)ccc(NC(=O)c2cc(C(F)(F)F)cnc2N2CCC(F)(F)CC2)c1F [Example 28] ... 6.68
NS(=O)(=O)c1cccc(NC(=O)c2cc(C(F)(F)F)cnc2N2CC3CC2CC3(F)F)c1 (single isomer, unassigned) [Example 138] ... 6.06
COc1nc(N2CCCCCC2)c(C(=O)Nc2cccc(S(N)(=O)=O)c2)cc1C [Example 155] ... 7.49

Parameter requested: pIC50. Apply to each item below.
1. NS(=O)(=O)c1cccc(NC(=O)c2cc(C(F)(F)F)cnc2N2CCOCC2)c1 [Example 69]
2. CS(=O)(=O)c1cccc(NC(=O)c2cc(Br)cnc2N2CCCCCC2)c1 [Example 35]

Response:
[5.39, 7.54]

* * *

biological target: human Nav1.8 (Homo sapiens (Human), UniProt Q9Y5Y9); experiment: Nav1.8 Qube automated patch-clamp assay; details: Nav1.8 Qube Assay; human Nav1.8 channels stably expressed in HEK 293 cells
Simple rule here: IC50 less than 60 nM is 1 (yes), otherwise 0 (no).

Worked cases, answers included:
NS(=O)(=O)c1cccc(NC(=O)c2cc(C(F)(F)F)cnc2N2CCCC3(C2)CC3(F)F)c1 (single isomer, unassigned) [Example 127] ... 0 (no)
O=C(Nc1cccc(S(=O)(=O)N2CCCC2)c1)c1cc(C(F)(F)F)cnc1N1CCCCCC1 ... 0 (no)
COc1ccc(C(=O)Nc2cccc(S(N)(=O)=O)c2)c(N2CCCCCC2)n1 ... 1 (yes)
NS(=O)(=O)c1cccc(NC(=O)c2cc(C3CCC3)cnc2N2CCCC(F)(F)CC2)c1 ... 1 (yes)

Request: I'd appreciate it if you could check whether "NS(=O)(=O)c1cccc(NC(=O)c2cc(C(F)(F)F)cnc2N2CCC3(CCCO3)CC2)c1" has IC50 smaller than 60 nM.
Response: 0 (no)

Request: Lab note: IC50 threshold 60 nM. Does this compound come in strictly under it? "Cc1nc(N2CCCCCC2)c(C(=O)Nc2cccc(C(N)=O)c2)cc1C#N"
Response: 1 (yes)

Request: For this compound, is IC50 lower than 60 nM? "CS(=O)(=O)c1cccc(NC(=O)c2cc(C(F)(F)F)cnc2N2CCC(F)(F)CC2)c1"
Response: 0 (no)
